Molecular target: T. gondii ME49Luc in IFN-y HeLa, luciferase, 72 h
Test: T. gondii growth inhibition with IFN-gamma, dose response, cell-based, ME49Luc, HeLa, luciferase, 72 h (AID 1259418)
Records with an inconclusive call do not appear. Active and inactive are the calls of the source.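 Rule for the calls: active = fitted half-maximal concentration of signal decrease at or below twice the sample's top tested concentration; inconclusive = flat curve between -70 and -30 percent, or poor fit; inactive = flat within 30 percent, signal rise, or potency above limit.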
Please answer using one outcome listed in 1 (yes) = active, 0 (no) = inactive

Example results:
COc1ccc(N(Cc2nc(-c3ccccc3OC)oc2C)S(=O)(=O)c2ccc(OC)cc2)cc1 :: 1 (yes)
CCCN1CCN(CCCNc2nc(-c3ccc(OC)cc3)nc3ccccc23)CC1 :: 1 (yes)
Clc1ccc(-c2nc(NCc3ccc4c(c3)OCO4)c3ccccc3n2)cc1 :: 1 (yes)
COc1ccc(-c2nc(N(CCCN3CCOCC3)Cc3ccco3)c3ccccc3n2)cc1 :: 1 (yes)
Cc1ccc(-c2coc(-c3ccc(NC(=O)Nc4cc(F)ccc4F)cc3)n2)cc1 :: 1 (yes)

## Task So what was the verdict on N#C[C@H]1N[C@@H](CO)[C@@H]1c1ccc(C#CC2CCCCC2)cc1 in this test?
## Result 1 (yes)

## Task So what was the verdict on N#Cc1cccc(-c2ccc([C@@H]3[C@H]4CN(Cc5ccccc5F)CCCCN4[C@H]3CO)cc2)c1 in this test?
## Result 1 (yes)

## Task So what was the verdict on O=C1CCc2cc(S(=O)(=O)NCc3ccco3)cc3c2N1CCC3 in this test?
## Result 0 (no)

## Task So what was the verdict on Clc1ccc(-n2ncc3c(NCc4cccc(Cl)c4)ncnc32)cc1 in this test?
## Result 1 (yes)

## Task So what was the verdict on COc1ccc(-n2c(C)c([N+](=O)[O-])c3ccc(O)cc32)cc1 in this test?
## Result 1 (yes)

* * *

Biological target: T. gondii ME49Luc in IFN-y HeLa, luciferase, 72 h
Test: T. gondii growth inhibition with IFN-gamma, dose response, cell-based, ME49Luc, HeLa, luciferase, 72 h (AID 1259418)
Results filed as inconclusive are left out. Active and inactive are the calls of the source.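 How the source made its calls: active means fitted half-maximal concentration of signal decrease at or below twice the sample's top tested concentration; inconclusive means flat curve between -70 and -30 percent, or poor fit; inactive means flat within 30 percent, signal rise, or potency above limit.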
Please answer using one outcome listed in TRUE (active), FALSE (inactive)

Example results:
COc1ccc(NC(=O)N2CCCCN3[C@H](CO)[C@@H](c4ccc(-c5ccccc5F)cc4)[C@@H]3C2)cc1 :: TRUE
CC(C)n1c(C(=O)N2CCN(c3ccncc3)CC2)cc2c1c1ccccc1n2C :: TRUE
Cc1cccc(C(=O)Nc2c(C(=O)NCc3cccnc3)[nH]c3ccccc23)c1 :: FALSE

## Task So what was the verdict on COc1ccc(Cc2nnc(NC(=O)CC(C)C)s2)cc1 in this test?
## Result TRUE

* * *

Target: T. gondii ME49Luc in IFN-y HeLa, luciferase, 72 h
Assay: T. gondii growth inhibition with IFN-gamma, dose response, cell-based, ME49Luc, HeLa, luciferase, 72 h (AID 1259418)
Records with an inconclusive call do not appear.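 The calls were made as follows: active = fitted half-maximal concentration of signal decrease at or below twice the sample's top tested concentration; inconclusive = flat curve between -70 and -30 percent, or poor fit; inactive = flat within 30 percent, signal rise, or potency above limit.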
Please answer using one outcome listed in Yes = active, No = inactive

## Task So what was the verdict on O=C(Cc1ccc(Cl)cc1)N1CC2(CCN(Cc3ccc(C(F)(F)F)cc3)CC2)C1 in this test?
## Result Yes

## Task So what was the verdict on Cc1ccc(S(=O)(=O)N2CCC3(CC2)NCCN=C3NCc2cc(F)cc(F)c2)cc1C in this test?
## Result Yes

* * *

Target: T. gondii ME49Luc in IFN-y HeLa, luciferase, 72 h
Test: T. gondii growth inhibition with IFN-gamma, dose response, cell-based, ME49Luc, HeLa, luciferase, 72 h (AID 1259418)
Inconclusive results are not listed. Calls of active or inactive are those of the source.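 How the source made its calls: active means fitted half-maximal concentration of signal decrease at or below twice the sample's top tested concentration; inconclusive means flat curve between -70 and -30 percent, or poor fit; inactive means flat within 30 percent, signal rise, or potency above limit.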
Please answer using one outcome listed in active, inactive

COC1(C)CC2C(CC1OC(=O)c1cc([N+](=O)[O-])cc([N+](=O)[O-])c1)C2(C)C (stereo unspecified) :: active
COc1ccccc1CNC1=NCCNC12CCN(S(=O)(=O)c1ccc(Cl)s1)CC2 :: active
COc1ccc(-c2nc(NCc3cccnc3)c3ccccc3n2)cc1 :: active
Cc1ccc(CNC2=NCCNC23CCN(S(=O)(=O)c2ccc(C)c(C)c2)CC3)cc1 :: active

## Task So what was the verdict on Cc1ccccc1-c1ccc(C2[C@@H]3CN(Cc4cncnc4)C[C@H]2N3)cc1 (stereo partly specified) in this test?
## Result active

## Task So what was the verdict on CCCNC(=O)N1CC(=O)N2[C@@H](CO)[C@@H](c3ccc(C#Cc4cccc(OC)c4)cc3)[C@@H]2C1 in this test?
## Result active

## Task So what was the verdict on N#C[C@H]1[C@H](c2ccc(-c3cccc(F)c3)cc2)[C@H](CO)N1C(=O)NC1CCCC1 in this test?
## Result active

## Task So what was the verdict on COc1ccccc1CNC(=O)CC1N=C2c3ccccc3N=C(SCc3ccccc3Cl)N2C1=O (stereo unspecified) in this test?
## Result active

## Task So what was the verdict on Cc1ccc(-c2nc(CN3CCN(C(=O)NCCc4ccccc4)CC3)c(C)o2)cc1 in this test?
## Result inactive

## Task So what was the verdict on O=C(NCCCN1CCCC1)C1CCN(Cc2cc3ccccc3n2Cc2ccccc2)CC1 in this test?
## Result active

## Task So what was the verdict on O=C(CC1N=C2c3ccccc3N=C(SCc3ccccc3Cl)N2C1=O)NCc1ccco1 (stereo unspecified) in this test?
## Result inactive

## Task So what was the verdict on O=C(COc1ccc(F)cc1)N1CCC2(CC1)Nc1ccc(Cl)cc1-n1cccc12 in this test?
## Result active

## Task So what was the verdict on CN1C(=O)c2cc(NC(=O)Cc3cccs3)ccc2OC[C@H]2O[C@@H](CC(=O)NCc3ccc(-c4ccccc4)cc3)CC[C@@H]21 in this test?
## Result active

## Task So what was the verdict on CC(C)c1cccc(NC(=O)C[C@H]2CC[C@H]3[C@@H](COc4ccc(NS(=O)(=O)c5ccccc5Cl)cc4C(=O)N3C)O2)c1 in this test?
## Result active

## Task So what was the verdict on CN1C(=O)c2cc(NC(=O)Cc3cccs3)ccc2OC[C@@H]2O[C@H](CC(=O)NCC3CCCCC3)CC[C@@H]21 in this test?
## Result inactive

## Task So what was the verdict on CCN1CCN(CCCNc2nc(-c3ccc(Cl)cc3)nc3ccccc23)CC1 in this test?
## Result inactive

## Task So what was the verdict on Cc1nc(-c2cc(S(=O)(=O)NCCCN3CCCC(C)C3)c(C)s2)sc1C (stereo unspecified) in this test?
## Result active

## Task So what was the verdict on CC[C@H]1CN2CCC1C[C@@H]2[C@H](O)c1ccnc2ccc(OC)cc12 (stereo partly specified) in this test?
## Result active

## Task So what was the verdict on CC(C)n1cnc2c(NCC3CC3)nc(C3CCN(C(=O)c4ccccc4)CC3)cc21 in this test?
## Result active
